Assay target: T1, NHERF3_3, Q5T2W1
T1 sequence (Q5T2W1 238-333, limits assumed, looked up): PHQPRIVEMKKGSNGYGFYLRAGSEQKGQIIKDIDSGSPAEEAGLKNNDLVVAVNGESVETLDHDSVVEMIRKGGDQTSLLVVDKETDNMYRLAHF
Run description: holdup assay
Set-up: key: below the threshold = too weak to quantify, mostly under pKd 3.1 to 4
Condition set: plain residues with an end cap or a label only (N-terminal biotin on a linker: ado-ado)
Readout kind: pKd

Field: example entries. Status: answers known.
| Binder | Recorded result |
| --- | --- |
| AKADAQESRL [PLCB2, Q00722] | 3.85 |
| GDSSRKEYFI [GYPC, P04921] | below the threshold |
| SAGADSETHC [SLCO1B1, Q9Y6L6] | below the threshold |
| PAALPESTHM [SLC9A3, P48764] | below the threshold |
| THREVKFTSL [CD46, P15529] | below the threshold |
| FVFESRKEIL [TBPL1, P62380] | below the threshold |
| EKPIDSETKM [SLC1A3, P43003] | 3.61 |

Next, consider the following binder.
Asked: What measured pKd goes with NNMAFETTHF [SLC5A12, Q1EHB4] ?
Given back: below the threshold
